Each entry below carries its reported EC50.
TARGET: glutathione-S-transferase (GST) tagged LXRbeta LBD (ligand binding domain) (Homo sapiens, UniProt P55055)
Construct: purchased Invitrogen pv4658.pps
TEST METHOD NOTES: LanthaScreen TR-FRET Liver X Receptor Coactivator Assay, LXR beta
Format: biochemical
MEASUREMENT CONDITIONS: potency (Inflection Point) of compound-induced co-activator recruitment, TR-FRET; read-out: LXR beta IP
ENDPOINT LABEL: EC50 (nM)

>>> test_result("COc1cccc([C@@](O)(C(=O)N2CCC3(CC2)C[C@H]3CCCc2ccc(C(=O)NC3CC3)c(Cl)c2)C(F)(F)F)c1 (single isomer, unassigned)")
19
>>> test_result("CN(C)C(=O)c1ccc(NCCC[C@H]2CC23CCN(C(=O)[C@@](O)(c2ccccc2)C(F)(F)C(F)(F)F)CC3)cc1Cl (single isomer, unassigned)")
68
>>> test_result("CN(C)C(=O)c1ccc(N(C)CCC[C@@H]2CC23CCN(C(=O)[C@](O)(c2ccccc2)C(F)(F)F)CC3)cc1Cl (single isomer, unassigned)")
59
>>> test_result("CNC(=O)c1ccc(NCCCCC2CCN(C(=O)C(O)(c3cccc(OC)c3)C(F)(F)F)CC2)cc1Cl (single isomer, unassigned)")
8
>>> test_result("CN(C)C(=O)c1ccc(NCCC[C@H]2CC23CCN(C(=O)[C@](O)(c2ccccc2)C(F)(F)F)CC3)cc1Cl (single isomer, unassigned)")
8

---

Each entry below carries its reported Emax.
TARGET: glutathione-S-transferase (GST) tagged LXRbeta LBD (ligand binding domain) (Homo sapiens, UniProt P55055)
Construct: purchased Invitrogen pv4658.pps
Sequence (P55055 222-460 limits assumed): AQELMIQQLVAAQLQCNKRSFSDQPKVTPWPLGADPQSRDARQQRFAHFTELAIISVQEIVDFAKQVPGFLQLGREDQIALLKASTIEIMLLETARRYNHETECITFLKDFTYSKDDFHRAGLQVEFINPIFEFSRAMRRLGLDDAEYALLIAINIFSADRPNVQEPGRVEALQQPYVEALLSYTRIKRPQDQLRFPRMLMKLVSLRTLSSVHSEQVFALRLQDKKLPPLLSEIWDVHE
TEST METHOD NOTES: LanthaScreen TR-FRET Liver X Receptor Coactivator Assay, LXR beta
Format: biochemical
MEASUREMENT CONDITIONS: efficacy (Emax) in relation to reference dual agonist T0901317; read-out: LXR beta actiivty at max dose (%)
Protocol: While running the LanthaScreen™ TR-FRET Liver X Receptor Coactivator Assay, LXR alpha-LBD or LXR beta-LBD was added to ligand test compounds followed by addition of a mixture of a fluorescein-labelled coactivator peptide and terbium-conjugated anti-GST antibody. After an incubation period at room temperature, TR-FRET (time-resolved fluorescence resonance energy transfer) was measured using a filter-based instrument capable of TR-FRET, e.g. PerkinElmer Envision.
ENDPOINT LABEL: Emax (%)

>>> test_result("CN(C)C(=O)c1ccc(CCCC2CC3(CCN(C(=O)C(O)(c4cccc(OC(F)(F)F)c4)C(F)(F)F)CC3)C2)cc1Cl (single isomer, unassigned)")
96
>>> test_result("CNC(=O)c1ccc(NCCC[C@@H]2CC23CCN(C(=O)[C@](O)(C(C)C)C(F)(F)F)CC3)cc1Cl (single isomer, unassigned)")
60
>>> test_result("CNC(=O)c1ccc(NCCCCC2CCN(C(=O)C(O)(c3cc(Cl)cc(Cl)c3)C(F)(F)F)CC2)cc1Cl (single isomer, unassigned)")
29
>>> test_result("CN(C)C(=O)c1ccc(NCCCCC2CCN(C(=O)OCc3ccccc3)CC2)cc1Cl")
41
>>> test_result("CN(C)C(=O)c1ccc(NCCC2CCN(C(=O)OCc3ccccc3)CC2)cc1Cl")
21
>>> test_result("CNC(=O)c1ccc(NCCCCC2CCN(C(=O)C(O)(c3cccc(OC(F)(F)F)c3)C(F)(F)F)CC2)cc1Cl (single isomer, unassigned)")
62
>>> test_result("CN(C)C(=O)c1ccc(NCCC[C@@H]2CC23CCN(C(=O)[C@](O)(c2ccccc2)C(F)(F)F)CC3)cc1Cl (single isomer, unassigned)")
30
>>> test_result("CNC(=O)c1ccc(NCCC[C@@H]2CC23CCN(C(=O)[C@@](O)(C(C)C)C(F)(F)F)CC3)cc1Cl (single isomer, unassigned)")
91
>>> test_result("CNC(=O)c1ccc(NCCCCC2CCN(C(=O)C(O)(c3cccc(OC)c3)C(F)(F)F)CC2)cc1F (single isomer, unassigned)")
63
>>> test_result("CN(C)C(=O)c1ccc(NCCCCC2CCN(C(=O)C(O)(c3ccccc3)C(F)(F)F)CC2)cc1Cl (single isomer, unassigned)")
72
>>> test_result("CN(C)C(=O)c1c(F)cc(NCCC[C@H]2CC23CCN(C(=O)[C@](O)(c2ccccc2)C(F)(F)F)CC3)cc1F (single isomer, unassigned)")
24
>>> test_result("CN(C)C(=O)c1ccc(CCCCC2CCN(C(=O)C(C)(C)c3ccccc3)CC2)cc1Cl")
103

The values you see were collected from patent US10894775B2.
